TARGET SYSTEM: HLA A*1101 (human)
EXPERIMENT SUMMARY: peptide-HLA binding, inhibition of radiolabeled probe
MEASUREMENT LABEL: IC50 (µM)
Number in µM, nothing else.

Q) Please look up its IC50: KSGAIKVLK
A) 0.151
